All values here come from ChEMBL document CHEMBL1143703.

Species: Oryctolagus cuniculus
Assay: Inhibition of post acid activity of rabbit reticulocyte 20S proteasome at 100 uM
Residues, ends and D or L forms follow the SMILES beside them. *: point of attachment. Boc = CC(C)(C)OC(=O)*; NHBn = c1ccc(CN*)cc1; NHPh = c1ccc(N*)cc1; Bn = c1ccc(C*)cc1
// inhibition lookup, one value per entry

Observe how each entry below is paired with its result.
CC(C)(C)OC(=O)N[C@@H](Cc1ccc(OCc2ccccc2)cc1)C(=O)N[C@@H](CC(N)=O)C(=O)N[C@@H](Cc1c[nH]c2ccccc12)C(=O)Nc1ccccc1 (Boc-Tyr(Bn)-Asn-Trp-NHPh): < 20%
C[C@H](NC(=O)[C@H](Cc1ccc(OCc2ccccc2)cc1)NC(=O)OC(C)(C)C)C(=O)N[C@@H](Cc1c[nH]c2ccccc12)C(=O)O (Boc-Tyr(Bn)-Ala-Trp-OH): < 20%
COC(=O)[C@@H]1Cc2c[nH]c3c(cccc23)-c2ccc(cc2OCc2ccccc2)C[C@H](NC(=O)OC(C)(C)C)C(=O)N[C@@H](CC(C)C)C(=O)N1: < 20%
CC(C)(C)OC(=O)NCCCC[C@H](NC(=O)[C@H](Cc1ccc(OCc2ccccc2)cc1)NC(=O)OC(C)(C)C)C(=O)N[C@@H](Cc1c[nH]c2ccccc12)C(=O)NCc1ccccc1 (Boc-Tyr(Bn)-Lys(Boc)-Trp-NHBn): < 20%
C[C@H](NC(=O)[C@H](Cc1ccc(O)cc1)NC(=O)OC(C)(C)C)C(=O)N[C@@H](Cc1c[nH]c2ccccc12)C(=O)O (Boc-Tyr-Ala-Trp-OH): < 20%
CC(C)C[C@H](NC(=O)[C@H](Cc1ccc(OCc2ccccc2)cc1)NC(=O)OC(C)(C)C)C(=O)N[C@@H](Cc1c[nH]c2ccccc12)C(=O)Nc1ccccc1 (Boc-Tyr(Bn)-Leu-Trp-NHPh): < 20%

// inhibition lookup, key: CNC(=O)[C@@H](Cc1c[nH]c2c(-c3ccc(C[C@H](NC(=O)OC(C)(C)C)C(=O)N[C@H](CC(C)C)C(=O)OC)cc3OCc3ccccc3)cccc12)NC(=O)OCc1ccccc1
< 20%

Quick one: CC(C)C[C@H](NC(=O)[C@H](Cc1ccc(OCc2ccccc2)cc1)NC(=O)OC(C)(C)C)C(=O)N[C@@H](Cc1c[nH]c2ccccc12)C(=O)NCc1ccccc1 (Boc-Tyr(Bn)-Leu-Trp-NHBn)
< 20%

Quick one: CC(C)(C)OC(=O)NCCCCNC(=O)[C@H](Cc1c[nH]c2ccccc12)NC(=O)[C@H](CCCCNC(=O)OC(C)(C)C)NC(=O)[C@H](Cc1ccc(OCc2ccccc2)cc1)NC(=O)OC(C)(C)C
< 20%

Quick one: CC(C)(C)OC(=O)NCCCC[C@H](NC(=O)[C@H](Cc1ccc(OCc2ccccc2)cc1)NC(=O)OC(C)(C)C)C(=O)N[C@@H](Cc1c[nH]c2ccccc12)C(=O)Nc1ccccc1 (Boc-Tyr(Bn)-Lys(Boc)-Trp-NHPh)
< 20%
